A collection of sequences and their measured IC50
system: CRF02_AG clone 33; format: cell-based, HIV-1; conditions: subtype AG, R5, Tier 3; triplicate, repeated twice, mean ± SD; read-out: IC50 (nM) against CRF02_AG clone 33
Ends that are not written are not given here.
// return numeric value only (unit: nM, not printed)

- input sequence: "WEEWDKKIEEYTKKIEELIKKSQNQQIDL [CP-IDL]"
  measured parameter: "IC50"
  endpoint value: 2.82

Would you kindly look at the next entry?
The sequence identified as WEEWDKKIEEYTKKIEELIKKSQNQQ [CP] registered its IC50 at 111

* * *

tested on: T2635-resistant strain N126K; assay type: cell-based, HIV-1; settings: triplicate, repeated twice, mean ± SD, read-out: IC50 (nM) against N126K
Ends that are not written are not given here.
A collection of sequences and their measured IC50
// return numeric value only (unit: nM, not printed)

- input sequence: "WEEWDKKIEEYTKKIEELIKKSQNQQ [CP]"
  endpoint value: 462

The sequence identified as WEEWDKKIEEYTKKIEELIKKSQNQQIDL [CP-IDL] registered its IC50 at 46.4
